# Tested On: ZFP91 (UniProt Q96JP5)
# Sequence (Q96JP5 whole entry, looked up): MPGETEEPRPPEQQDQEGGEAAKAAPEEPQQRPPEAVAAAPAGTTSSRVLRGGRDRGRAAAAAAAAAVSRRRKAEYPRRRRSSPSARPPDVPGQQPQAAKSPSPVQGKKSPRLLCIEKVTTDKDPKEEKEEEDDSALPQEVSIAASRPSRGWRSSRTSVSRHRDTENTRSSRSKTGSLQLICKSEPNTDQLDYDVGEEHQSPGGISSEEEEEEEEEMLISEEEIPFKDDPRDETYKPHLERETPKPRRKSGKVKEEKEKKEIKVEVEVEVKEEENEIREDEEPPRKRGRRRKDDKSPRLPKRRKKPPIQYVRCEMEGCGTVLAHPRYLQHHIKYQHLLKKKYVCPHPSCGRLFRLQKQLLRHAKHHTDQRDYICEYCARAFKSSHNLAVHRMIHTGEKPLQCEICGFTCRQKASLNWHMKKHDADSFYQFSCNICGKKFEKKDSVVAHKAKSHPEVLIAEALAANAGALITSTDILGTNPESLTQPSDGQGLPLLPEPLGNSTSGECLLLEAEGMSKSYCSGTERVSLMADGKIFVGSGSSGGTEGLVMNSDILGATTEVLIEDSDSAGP
# Protocol Summary: log2 fold change, soluble protein after heating vs DMSO (PISA); higher = thermal stabilisation; K562 cells, 10 uM, 30 min; active = over 0.2 and 3.5 SD of the protein, either way, in both replicates (recomputed)
Of roughly 7,900 targets only a part is listed; those with a hit were picked by preference. About 0.6% of all pairs of compound and target were hits.
# log2 fold change >= 0 gives T, anything below gives F

Worked examples follow.
C[C@@H](N)c1ccc(C(=O)Nc2ccnc3[nH]ccc23)cc1    T
CC[C@H](C)[C@H](NC(=O)[C@H]([C@@H](C)CC)N(C)C(C)=O)C(=O)N[C@H](C(=O)N[C@@H](CC(C)C)C(=O)[C@@]1(C)CO1)[C@@H](C)O    F
CC[C@@H]1C(=O)N(C)c2cnc(Nc3ccc(C(=O)NC4CCN(C)CC4)cc3OC)nc2N1C1CCCC1    T
Oc1cc(-c2nc(-c3ccccc3)[nH]c2-c2ccncc2)ccc1Cl    F
O=C1c2ccccc2-c2n[nH]c3cccc1c23    F

In: Is reported log2 fold change greater than or equal to 0 here: COc1cc(Nc2ncc3c(n2)-c2ccc(Cl)cc2C(c2c(F)cccc2OC)=NC3)ccc1C(=O)O
Out: F

In: Is reported log2 fold change greater than or equal to 0 here: C/C(=N\NC(=O)c1cccc(S(=O)(=O)N2CCOCC2)c1)c1cc(Cl)ccc1O
Out: F
